Assign normalised inhibition (eCFP-eYFP dual reporter) to each entry below.
# system: UBE2B; further: test concentration or dose not given here
# method-notes: reporter assay of Huesken 2005
# study-conditions: siRNA
Oligonucleotides are written 5' to 3', each unit as a sugar letter and its base; * is a phosphorothioate linkage, no mark a phosphodiester; rarer units and linkages stand in square brackets, end groups in braces. Plain capitals give the bases only. d = 2'-deoxy (DNA); r = 2'-OH (RNA)
One number for each entry, in %.

Sample answers from the record:
{"substance": "sense rArGrGrGrArCrArCrCrUrUrUrUrGrArArGrArUdTdT / antisense rArUrCrUrUrCrArArArArGrGrUrGrUrCrCrCrUdTdC", "uom": "%", "measured": 78.1}
{"substance": "sense rArGrArArUrCrGrArUrGrGrArGrUrCrCrArArCdTdT / antisense rGrUrUrGrGrArCrUrCrCrArUrCrGrArUrUrCrUdGdA", "uom": "%", "measured": 64.8}

List normalised inhibition (eCFP-eYFP dual reporter) for every entry below, keeping the order given.
1. sense rArUrGrUrUrUrArGrArUrArUrCrCrUrUrCrArGdTdT / antisense rCrUrGrArArGrGrArUrArUrCrUrArArArCrArUdAdT
2. sense rCrCrArCrCrArArCrUrGrUrUrArGrGrUrUrUrUdTdT / antisense rArArArArCrCrUrArArCrArGrUrUrGrGrUrGrGdTdT

Result block:
1: 46.7; 2: 69.7
